biological target: EGFR L858R/C797S (Homo sapiens, UniProt P00533, C797S/L858R); assay: Biochemical EGFR kinase assay (Lance Ultra TR-FRET), double mutant L858R/C797S; settings: Km ATP; read-out: IC50 L858R/C797S (nM) Km ATP
Sequence (P00533 25-1210 C797S/L858R): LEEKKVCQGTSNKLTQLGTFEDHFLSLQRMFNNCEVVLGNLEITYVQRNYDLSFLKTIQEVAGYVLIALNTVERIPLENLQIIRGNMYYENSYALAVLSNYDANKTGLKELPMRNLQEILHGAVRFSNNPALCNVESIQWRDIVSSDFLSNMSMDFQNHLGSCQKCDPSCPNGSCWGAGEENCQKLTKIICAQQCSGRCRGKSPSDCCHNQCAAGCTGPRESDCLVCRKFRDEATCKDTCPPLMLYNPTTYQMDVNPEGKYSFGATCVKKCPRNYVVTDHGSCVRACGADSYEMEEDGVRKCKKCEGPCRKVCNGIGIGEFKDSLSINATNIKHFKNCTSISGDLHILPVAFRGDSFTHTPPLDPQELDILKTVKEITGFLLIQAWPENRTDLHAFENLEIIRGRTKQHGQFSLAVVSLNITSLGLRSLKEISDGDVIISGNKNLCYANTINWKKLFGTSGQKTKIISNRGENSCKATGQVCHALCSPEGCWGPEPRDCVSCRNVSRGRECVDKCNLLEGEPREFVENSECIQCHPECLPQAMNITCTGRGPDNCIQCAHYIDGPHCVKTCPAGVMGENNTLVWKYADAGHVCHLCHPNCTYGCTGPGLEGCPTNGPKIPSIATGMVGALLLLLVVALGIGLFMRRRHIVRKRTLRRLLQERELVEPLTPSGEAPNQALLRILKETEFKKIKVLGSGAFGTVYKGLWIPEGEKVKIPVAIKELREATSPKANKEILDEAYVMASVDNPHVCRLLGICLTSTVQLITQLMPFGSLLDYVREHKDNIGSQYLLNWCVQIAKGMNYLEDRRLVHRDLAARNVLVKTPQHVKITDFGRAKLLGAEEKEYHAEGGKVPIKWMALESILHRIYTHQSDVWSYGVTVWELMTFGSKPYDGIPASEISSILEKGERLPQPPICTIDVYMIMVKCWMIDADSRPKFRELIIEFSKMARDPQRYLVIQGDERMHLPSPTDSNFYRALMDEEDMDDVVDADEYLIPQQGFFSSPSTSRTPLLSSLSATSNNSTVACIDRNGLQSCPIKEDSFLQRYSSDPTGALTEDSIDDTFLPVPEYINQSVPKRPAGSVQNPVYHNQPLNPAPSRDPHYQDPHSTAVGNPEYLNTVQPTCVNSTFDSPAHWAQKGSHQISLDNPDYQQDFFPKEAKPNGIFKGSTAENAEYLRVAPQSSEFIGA
PROPERTY: IC50 (nM)

> print(dat)
                                   compound  property  obs.value
1  C[C@]1(O)CC[C@@H](Nc2cc(Nc3ccnc(-c4cnn(CCF)c4)n3)ncc2-c2ccn(C(F)F)n2)CC1      IC50        7.2

(P) Cc1cc(-c2cnc(Nc3ccnc(-c4cnn(S(=O)(=O)C5CC5)c4)n3)cc2N[C@H]2CC[C@@](C)(O)CC2)nn1C
(Q) O=S(=O)(C1CC1)n1cc(-c2nccc(Nc3cc(NC4CCC(O)(C5CC5)CC4)c(-c4ccn(C(F)F)n4)cn3)n2)cn1 (stereo not shown)
(R) O=S(=O)(C1CC1)n1cc(-c2nccc(Nc3cc(NC4CCC(F)(CO)CC4)c(-c4cc5n(n4)CCCC5)cn3)n2)cn1 (stereo not shown)
(S) COCC#Cc1nccc(Nc2cc(NC3CCC(C)(O)CC3)c(-c3ccn(C(F)F)n3)cn2)n1 (stereo not shown)
## Task Task field, ranking: reported IC50, descending order. // list labels; follow requested order
## Result Q, S, R, P

(1) OCC[C@H]1CC[C@H](Nc2cc(Nc3ccnc(-c4cnn(CC(F)F)c4)n3)ncc2-c2ccn(C(F)F)n2)CC1
(2) O=S(=O)(C1CC1)n1cc(-c2nccc(Nc3cc(N[C@H]4CC[C@](O)(CO)CC4)c(-c4ccn(C(F)F)n4)cn3)n2)cn1
(3) O=S(=O)(C1CC1)n1cc(-c2nccc(Nc3cc(N[C@H]4CC[C@@H](NCC(F)F)CC4)c(-c4ccn(C(F)F)n4)cn3)n2)cn1
## Task Ascending by IC50, please. # output: labels, in the requested order
## Result 2, 3, 1
(2: 1.1 nM, 3: 1.8 nM, 1: 32.6 nM)

(I) CS(=O)(=O)n1cc(-c2nccc(Nc3cc(N[C@H]4CC[C@@](C)(O)CC4)c(-c4ccn(C(F)F)n4)cn3)n2)cn1
(II) O=S(=O)(C1CC1)n1cc(-c2nccc(Nc3cc(NC4CC5(CC(O)C5)C4)c(-c4ccn(C(F)F)n4)cn3)n2)cn1 (stereo not shown)
(III) O=S(=O)(C1CC1)n1cc(-c2nccc(Nc3cc(N[C@H]4CC[C@@H](F)CC4)c(-c4ccn(C(F)(F)F)n4)cn3)n2)cn1
(IV) C=CCCS(=O)(=O)n1cc(-c2nccc(Nc3cc(N[C@H]4CC[C@@](C)(O)CC4)c(-c4ccn(C(F)F)n4)cn3)n2)cn1
## Task Rank entries according to their IC50, from the largest number down. Form field (ranking): labels in requested order.
## Result III, I, II, IV
(III: 188 nM, I: 34.9 nM, II: 24 nM, IV: 0.2 nM)

* * *

target: EGFR L858R/C797S (Homo sapiens, UniProt P00533, C797S/L858R); test: Biochemical EGFR kinase assay (Lance Ultra TR-FRET), double mutant L858R/C797S; conditions: IC50 L858R/C797S (nM) 100 μM ATP, 100 μM ATP
PROPERTY: IC50 (nM)

> print(dat)
                            chemical.smiles  unit.of.measurement  obs.value
1  O=S(=O)(C1CC1)n1cc(-c2nccc(Nc3cc(N[C@H]4CC[C@@H](NCC(F)F)CC4)c(-c4csc(C(F)(F)F)n4)cn3)n2)cn1                   nM        264

(A) CN(C)C(=O)C[C@H]1CC[C@@H](Nc2cc(Nc3ccnc(-c4cnn(S(=O)(=O)C5CC5)c4)n3)ncc2-c2cc(C(F)(F)F)n(C)n2)CC1
(B) CS(=O)(=O)c1ccccc1Nc1nccc(Nc2cc(N[C@H]3CC[C@@](C)(O)CC3)c(-c3ccn(C(F)F)n3)cn2)n1
(C) CN(C)C[C@H]1CC[C@@H](Nc2cc(Nc3ccnc(-c4cnn(S(=O)(=O)C5CC5)c4)n3)ncc2-c2cc(C(F)(F)F)n(C)n2)CC1
## Task Please order the records by their reported IC50, lowest number first. // list labels; follow requested order
## Result C, A, B

* * *

molecular target: EGFR L858R/T790M/C797S (Homo sapiens, UniProt P00533, C797S/L858R/T790M); test: Biochemical EGFR kinase assay (Lance Ultra TR-FRET), triple mutant L858R/T790M/C797S; conditions: IC50 L858R/T790M/C797S (nM) 100 μM ATP, 100 μM ATP
Sequence (P00533 25-1210 T790M/C797S/L858R): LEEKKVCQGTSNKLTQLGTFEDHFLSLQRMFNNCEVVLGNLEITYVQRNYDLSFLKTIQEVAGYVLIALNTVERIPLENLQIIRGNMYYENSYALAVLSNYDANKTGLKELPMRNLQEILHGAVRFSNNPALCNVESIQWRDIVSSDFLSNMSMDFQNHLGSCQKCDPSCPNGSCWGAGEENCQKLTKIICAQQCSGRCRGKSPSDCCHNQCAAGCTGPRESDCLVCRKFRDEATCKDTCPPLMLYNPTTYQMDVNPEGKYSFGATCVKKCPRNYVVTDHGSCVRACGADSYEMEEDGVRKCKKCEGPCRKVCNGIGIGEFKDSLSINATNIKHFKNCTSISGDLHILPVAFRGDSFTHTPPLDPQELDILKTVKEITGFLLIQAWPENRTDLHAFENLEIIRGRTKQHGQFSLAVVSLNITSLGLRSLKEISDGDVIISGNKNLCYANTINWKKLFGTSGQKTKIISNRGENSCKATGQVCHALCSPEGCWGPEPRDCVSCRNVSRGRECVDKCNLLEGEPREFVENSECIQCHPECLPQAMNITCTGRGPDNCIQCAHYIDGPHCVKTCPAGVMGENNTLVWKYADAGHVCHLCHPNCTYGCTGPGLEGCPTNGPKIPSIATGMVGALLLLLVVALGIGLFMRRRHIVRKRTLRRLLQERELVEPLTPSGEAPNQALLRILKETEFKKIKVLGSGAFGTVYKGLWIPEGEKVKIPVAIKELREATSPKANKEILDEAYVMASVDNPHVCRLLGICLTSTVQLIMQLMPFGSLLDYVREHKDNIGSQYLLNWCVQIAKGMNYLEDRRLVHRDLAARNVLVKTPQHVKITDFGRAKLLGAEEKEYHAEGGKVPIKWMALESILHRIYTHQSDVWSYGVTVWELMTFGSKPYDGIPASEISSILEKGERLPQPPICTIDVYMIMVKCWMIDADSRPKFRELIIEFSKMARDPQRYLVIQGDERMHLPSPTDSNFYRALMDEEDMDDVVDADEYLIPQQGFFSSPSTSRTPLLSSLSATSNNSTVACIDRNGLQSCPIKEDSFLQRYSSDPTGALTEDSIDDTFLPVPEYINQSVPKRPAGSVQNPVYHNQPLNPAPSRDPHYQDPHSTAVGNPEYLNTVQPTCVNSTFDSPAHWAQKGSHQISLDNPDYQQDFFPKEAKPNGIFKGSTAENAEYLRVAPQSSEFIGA
PROPERTY: IC50 (nM)

> print(dat)
                                   molecule  property  obs.value
1  CC(C)(O)c1nc(-c2cnc(Nc3ccnc(-c4cnn(S(=O)(=O)C5CC5)c4)n3)cc2N[C@H]2CC[C@@H](O)CC2)cs1 [Example 76]      IC50        2.3

(1) CN[C@H]1CC[C@H](CNc2cc(Nc3ccnc(-c4cnn(S(=O)(=O)C5CC5)c4)n3)ncc2-c2ccn(C(F)F)n2)CC1 [Example 193]
(2) C[C@]1(O)CC[C@@H](Nc2cc(Nc3ccnc(-c4cnn(C5CC5)c4)n3)ncc2-c2ccn(C(F)F)n2)CC1 [Example 140]
## Task So which one has the bigger IC50 here, 1 or 2 ? // output: label of the selected item
## Result 2

(1) CN(C)C[C@H]1CC[C@@H](Nc2cc(Nc3ccnc(-c4cnn(S(=O)(=O)C5CC5)c4)n3)ncc2-c2cc(C(F)(F)F)n(C)n2)CC1 [Example 256]
(2) Cn1nc(-c2cnc(Nc3nc(-c4cnn(S(=O)(=O)C5CC5)c4)ncc3F)cc2N[C@H]2CC[C@@](C)(O)CC2)cc1C(F)(F)F [Example 328]
## Task Which numeric IC50 is bigger, that of 1 or that of 2 ? Select an item and report its label.
## Result 2

(a) CC(C)n1ccc(-c2cnc(Nc3ccnc(-c4cnn(S(=O)(=O)C5CC5)c4)n3)cc2N[C@H]2CC[C@@](C)(O)CC2)n1 [Example 84]
(b) CN(CC(F)F)C[C@H]1CC[C@@H](Nc2cc(Nc3ccnc(-c4cnn(S(=O)(=O)C5CC5)c4)n3)ncc2-c2ccn(CC(F)F)n2)CC1 [Example 245]
(c) CCOC(=O)c1ccn(-c2cnc(Nc3ccnc(-c4cnn(S(=O)(=O)C5CC5)c4)n3)cc2N[C@H]2CC[C@@](C)(O)CC2)n1 [Example 102]
(d) O=S(=O)(C1CC1)n1cc(-c2nccc(Nc3cc(OC4CCC(O)CC4)c(-c4ccn(C(F)F)n4)cn3)n2)cn1 (centres unmarked) [Example 66]
(e) O=S(=O)(C1CC1)n1cc(-c2nccc(Nc3cc(N[C@H]4CC[C@@H](NCCF)CC4)c(-c4nc(C(F)F)cs4)cn3)n2)cn1 [Example 123]
## Task Order the items by recorded IC50; the first position goes to the largest value. Answer by naming the labels in the order asked.
## Result b, d, a, c, e
(b: 12.8 nM, d: 2.7 nM, a: 1 nM, c: 0.6 nM, e: 0.2 nM)

(A) Cn1ccc(-c2cnc(Nc3ccnc(-c4cnn(S(=O)(=O)C5CC5)c4)n3)cc2NC2CCCC(NCC(F)F)C2)n1 (centres unmarked) [Example 224]
(B) CC1(C)CC(Nc2cc(Nc3ccnc(-c4cnn(S(=O)(=O)C5CC5)c4)n3)ncc2-c2ccn(C(F)F)n2)CCC1O (centres unmarked) [Example 106]
(C) CC(O)C(C)(C)Nc1cc(Nc2ccnc(-c3cnn(S(=O)(=O)C4CC4)c3)n2)ncc1-c1ccn(C(F)F)n1 (centres unmarked) [Example 7]
(D) Cn1ccc(-c2cnc(Nc3ccnc(-c4cnn(S(=O)(=O)C5CC5)c4)n3)cc2N[C@H]2CC[C@@H](CCO)CC2)n1 [Example 136]
## Task Sort low-to-high on IC50, please. Lab note: record answer as labels in requested order.
## Result A, D, B, C
(A: 0.7 nM, D: 1 nM, B: 2.6 nM, C: 6 nM)

(1) Cn1ccc(-c2cnc(Nc3ccnc(-c4cnn(S(=O)(=O)C5CC5)c4)n3)cc2N[C@H]2CC[C@H](CCO)CC2)n1 [Example 134]
(2) O=S(=O)(C1CC1)n1cc(-c2nccc(Nc3cc(OC4CCC(O)CC4)c(-c4cnn(C(F)F)c4)cn3)n2)cn1 (centres unmarked) [Example 71]
## Task Between 1 and 2 , which one has the lower reported IC50 value? // return label of chosen record
## Result 1

* * *

biological target: EGFR L858R/C797S (Homo sapiens, UniProt P00533, C797S/L858R); assay: Biochemical EGFR kinase assay (Lance Ultra TR-FRET), double mutant L858R/C797S; conditions: IC50 L858R/C797S (nM) 100 μM ATP, 100 μM ATP
PROPERTY: IC50 (nM)

// worked examples, IC50 included
> print(dat)
                                   compound  obs.value
1  Cn1ccc(-c2cnc(Nc3ccnc(-c4cnn(S(=O)(=O)C5CC5)c4)n3)cc2N[C@H]2CC[C@@H](NCC(F)F)CC2)n1        2.8
2  COCn1cc(-c2nccc(Nc3cc(N[C@H]4CC[C@@](C)(O)CC4)c(-c4ccn(C(F)F)n4)cn3)n2)cn1        237

(a) O=S(=O)(C1CC1)n1cc(-c2nccc(Nc3cc(N[C@H]4CC[C@@H](CO)CC4)c(-c4ccn(C5COC5)n4)cn3)n2)cn1
(b) O=S(=O)(C1CC1)n1cc(-c2nccc(Nc3cc(N[C@H]4CCC[C@H](O)C4)c(-c4ccn(C(F)F)n4)cn3)n2)cn1
(c) O=S(=O)(C1CC1)n1cc(-c2nccc(Nc3cc(N[C@H]4CC[C@@H](CCO)CC4)c(-c4ccn(C(F)F)n4)cn3)n2)cn1
(d) O=S(=O)(C1CC1)n1cc(-c2nccc(Nc3cc(NC4CC5CC(O)C4C5)c(-c4ccn(C(F)F)n4)cn3)n2)cn1 (stereo not drawn)
(e) Cn1cc(-c2nccc(Nc3cc(N[C@H]4CC[C@@](C)(O)CC4)c(-c4ccn(C(F)F)n4)cn3)n2)cn1
## Task Could you please sort these 5 entries by IC50 from high to low? # the answer lists labels in the order requested
## Result d, e, c, b, a

Cited source for all entries: patent US12258327B2
